- protocolDetails: Partition coefficient (logP) of the compound
- Assay type: physicochemical
- conditionParameters: octanol/water
readoutName: logP

INSERT INTO measurements (structurestring, resultvalue) VALUES
  ('O=C(Cn1c(Cl)cnc(NCC(F)(F)c2cccc[n+]2[O-])c1=O)NCc1cccc(Cl)c1', 'Not Active'),
  ('O=C(Cn1c(Cl)cnc(NCC(F)(F)c2cccc[n+]2[O-])c1=O)NCc1cc(Cl)ccc1F', 'Not Active'),
  ('O=C(Cn1c(Cl)cnc(NCC(F)(F)c2cccc[n+]2[O-])c1=O)NCc1cccc(F)c1', 'Not Active'),
  ('O=C(Cn1c(Cl)cnc(NCC(F)(F)c2cccc[n+]2[O-])c1=O)NCc1ccc(F)c(Cl)c1', 1.98),
  ('O=C(Cn1c(Cl)cnc(NCC(F)(F)c2cccc[n+]2[O-])c1=O)NCc1cc(F)ccc1C(F)(F)F', 1.99),
  ('O=C(Cn1c(Cl)cnc(NCC(F)(F)c2cccc[n+]2[O-])c1=O)NCc1cc(F)ccc1F', 'Not Active');
